Hey, just so you know, these numbers are from patent US9834542B2.

TESTED_SYSTEM: LXRβ (Homo sapiens)
Construct: Co-transfection expression plasmids, comprising full-length LXRα (pCMX-h LXRα[…] or LXRβ (pCMX-hLXRβ)); expressed in transfected cells; host or cells: CV-1 African Green Monkey Kidney Cells
Sequence (P55055 whole entry): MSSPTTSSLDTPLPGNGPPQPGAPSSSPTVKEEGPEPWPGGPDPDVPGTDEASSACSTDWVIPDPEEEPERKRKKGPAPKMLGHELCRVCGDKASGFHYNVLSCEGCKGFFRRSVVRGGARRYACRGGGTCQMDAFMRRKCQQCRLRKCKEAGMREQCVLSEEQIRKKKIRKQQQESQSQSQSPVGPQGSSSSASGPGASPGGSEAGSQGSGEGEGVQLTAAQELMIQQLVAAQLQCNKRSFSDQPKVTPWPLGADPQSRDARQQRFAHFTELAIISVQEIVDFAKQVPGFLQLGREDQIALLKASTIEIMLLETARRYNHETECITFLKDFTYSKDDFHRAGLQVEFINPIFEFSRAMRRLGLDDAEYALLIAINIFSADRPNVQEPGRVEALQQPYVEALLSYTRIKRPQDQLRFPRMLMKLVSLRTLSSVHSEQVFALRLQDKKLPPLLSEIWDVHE
Sequence (P19793 whole entry partner): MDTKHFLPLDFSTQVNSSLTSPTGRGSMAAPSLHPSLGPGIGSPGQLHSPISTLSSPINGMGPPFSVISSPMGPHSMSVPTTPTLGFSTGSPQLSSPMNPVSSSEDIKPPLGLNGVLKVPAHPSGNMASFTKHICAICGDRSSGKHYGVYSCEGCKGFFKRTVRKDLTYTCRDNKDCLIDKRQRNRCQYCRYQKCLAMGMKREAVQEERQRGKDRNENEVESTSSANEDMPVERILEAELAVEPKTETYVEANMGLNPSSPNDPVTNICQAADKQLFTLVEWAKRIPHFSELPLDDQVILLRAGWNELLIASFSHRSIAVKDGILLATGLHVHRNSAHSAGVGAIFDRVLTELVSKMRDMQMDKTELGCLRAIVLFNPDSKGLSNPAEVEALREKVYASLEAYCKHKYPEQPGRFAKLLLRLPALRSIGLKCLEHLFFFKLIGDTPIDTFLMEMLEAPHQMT
EXPERIMENT: Co-transfection assay (LXRE luciferase reporter), LXRβ
Format: cell-based
APPLIED_CONDITIONS: CV-1 cells transfected with pCMX-hLXRβ and LXREx1-Tk-Luciferase; 20 hours incubation
PROPERTY_MEASURED: EC50 (nM)
Respond numerically; units are nM and should not be typed.

COMPOUND_STRUCTURE: Cc1nc(-c2cc(-c3cccc(S(C)(=O)=O)c3)ccc2-n2cc(C(F)(F)F)nc2C)c(-c2ccc(Cl)nc2)o1
RESULT_UNITS: nM
VAL: 625
//
COMPOUND_STRUCTURE: CS(=O)(=O)c1cccc(-c2ccc(-n3cnc(C(F)(F)F)c3)c(-n3nncc3-c3ccc(Cl)cc3Cl)c2)c1
RESULT_UNITS: nM
VAL: 1070
//
COMPOUND_STRUCTURE: Cc1nc(-c2cc(-c3cc(F)c(CO)c(S(C)(=O)=O)c3)ccc2-n2cc(C(F)(F)F)nc2C)c(-c2cc(Cl)cc(Cl)c2)o1
RESULT_UNITS: nM
VAL: 57
//
COMPOUND_STRUCTURE: COC(=O)c1ccc(-c2cnnn2-c2cc(-c3cccc(S(C)(=O)=O)c3)ccc2-n2cc(C(F)(F)F)nc2C)cc1
RESULT_UNITS: nM
VAL: 260
//
COMPOUND_STRUCTURE: Cc1nc(C(F)(F)F)cn1-c1c(F)cc(-c2ccc(CO)c(S(C)(=O)=O)c2)cc1-n1nncc1-c1ccc(OC(F)(F)F)cc1
RESULT_UNITS: nM
VAL: 127
//
COMPOUND_STRUCTURE: Cc1nc(C(C)(F)F)cn1-c1ccc(-c2ccc(CO)c(S(C)(=O)=O)c2)cc1-n1nncc1-c1ccc(OC(F)(F)F)cc1
RESULT_UNITS: nM
VAL: 638

So what does the record say about EC50 for CCC(F)(F)c1cn(-c2ccc(-c3cccc(S(N)(=O)=O)c3)cc2-n2nncc2-c2ccc(OC(F)(F)F)cc2)c(C)n1 ? 1480

So what does the record say about EC50 for Cc1nc(-c2cc(-c3cccc(S(C)(=O)=O)c3)ccc2-n2cc(C#N)nc2C)c(-c2ccc3c(c2)OC(F)(F)O3)o1 ? 248

So what does the record say about EC50 for Cc1nc(C(F)(F)F)cn1-c1ccc(-c2cccc(C(C)(C)C(N)=O)c2)cc1-c1cnnn1-c1ccc(OC(F)(F)F)cc1 ? 405

So what does the record say about EC50 for Cc1nc(C(C)(F)F)cn1-c1ccc(-c2cccc(S(C)(=O)=O)c2)cc1-c1ocnc1-c1ccc(OC(F)(F)F)cc1 ? 691

So what does the record say about EC50 for Cc1nc(C(F)(F)F)cn1-c1ccc(-c2cccc(S(C)(=O)=O)c2)cc1-c1nc(CC(C)C)oc1-c1ccc(OC(F)(F)F)cc1 ? 34

So what does the record say about EC50 for Cc1cc(-c2cc(-c3ccc(CO)c(S(C)(=O)=O)c3)ccc2-n2cc(C(F)(F)F)nc2C)n(-c2ccc3c(c2)OC(F)(F)O3)n1 ? 12

So what does the record say about EC50 for CS(=O)(=O)c1cccc(-c2cc(Cl)c(-n3cnc(C(F)(F)F)c3)c(-n3nncc3-c3ccc(Cl)cc3)c2)c1 ? 408

So what does the record say about EC50 for Cc1nc(C(F)(F)F)cn1-c1ccc(-c2cc(F)c(CO)c(S(C)(=O)=O)c2)cc1-c1ocnc1Cc1ccc(Cl)cc1 ? 161
